TARGET: mu opiate receptor (MOR) (Rattus norvegicus, UniProt P33535)
Construct: from tissue; host or cells: striatum (membrane preparation)
Sequence (P33535 whole entry): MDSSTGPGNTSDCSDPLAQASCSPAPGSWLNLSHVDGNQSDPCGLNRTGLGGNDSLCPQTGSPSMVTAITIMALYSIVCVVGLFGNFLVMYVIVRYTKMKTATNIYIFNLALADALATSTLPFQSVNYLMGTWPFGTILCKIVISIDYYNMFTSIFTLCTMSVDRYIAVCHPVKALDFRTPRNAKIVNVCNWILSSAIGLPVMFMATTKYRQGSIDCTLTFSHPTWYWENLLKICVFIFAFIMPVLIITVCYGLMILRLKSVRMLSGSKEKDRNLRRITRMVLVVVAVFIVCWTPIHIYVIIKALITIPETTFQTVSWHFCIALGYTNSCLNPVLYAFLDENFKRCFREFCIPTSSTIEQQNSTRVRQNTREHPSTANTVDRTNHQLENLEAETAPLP
Type: biochemical
Protocol: To assess the mu opiate receptor (MOR) agonist activity of positive compounds from the FLNA screening, compounds were tested in a [^35S]GTPγS binding assay using striatal membranes. […] The immunocomplexes so formed were collected by incubation at 25° C. for 30 minutes with 40 μl of agarose-conjugated protein A/G beads and centrifugation at 5,000×g at 4° C. for 5 minutes. […] The radioactivity in the suspension was determined by liquid scintillation spectrometry.

COMPOUND | U | % DAMGO (0.1 μM)
CC(=O)c1ccc(C(=O)N2CCOC23CCN(S(=O)(=O)c2ccc(C(C)=O)cc2)CC3)cc1 [Compound C0053] | % | 71.7
O=C(c1ccc([N+](=O)[O-])cc1)N1CCC2(CC1)OCCN2S(=O)(=O)c1ccc([N+](=O)[O-])cc1 [Compound C0033] | % | 85.9
COc1c2c(cc3c1C(CC(=O)c1ccc(O)c(C)c1)[N+](C)(C)CC3)OCO2 (centres unmarked) [Compound B0002] | % | 100.0
O=S(=O)(c1csc2ccccc12)N1CCC2(CC1)OCCN2S(=O)(=O)c1csc2ccccc12 [Compound C0150M] | % | 97.2
COc1ccc(S(=O)(=O)N2CCCC3(C2)OCCN3S(=O)(=O)c2ccc(OC)cc2)cc1 (centres unmarked) [Compound C0145M] | % | 112.2
CC1CCC(C)C(OCC(O)CN2CC(C)OC(C)C2)C1 (centres unmarked) [Compound A0022] | % | 90.0
CC(=O)c1ccc(S(=O)(=O)N2CC(CN(C)C)OC23CCNCC3)cc1 (centres unmarked) [Compound C0118M] | % | 87.8
COc1c2c(cc3c1C(CC(=O)CCc1ccccc1)N(C)CC3)OCO2 (centres unmarked) [Compound B0050] | % | 58.1

----------
Reported [35S]GTPγS binding, FLNA-Binding Compound as Agonist at 0.1 μM by item:
TARGET: mu opiate receptor (MOR) (Rattus norvegicus)
Construct: from tissue; host or cells: striatum (membrane preparation)
Format: biochemical
ASSAY CONTEXT: 0.1 μM compound; striatal membranes; Series C-2
Procedure: To assess the mu opiate receptor (MOR) agonist activity of positive compounds from the FLNA screening, compounds were tested in a [^35S]GTPγS binding assay using striatal membranes. […] The immunocomplexes so formed were collected by incubation at 25° C. for 30 minutes with 40 μl of agarose-conjugated protein A/G beads and centrifugation at 5,000×g at 4° C. for 5 minutes. […] The radioactivity in the suspension was determined by liquid scintillation spectrometry.
MEASUREMENT TYPE: [35S]GTPγS binding, FLNA-Binding Compound as Agonist at 0.1 μM (%)

MOLECULE | RECORDED MEASUREMENT
CCCCN1CCC2(CC1)OCCN2S(=O)(=O)c1ccc(C(C)=O)cc1 [Compound C0101M] | 138.2
C=CCN1CCC2(CC1)OCCN2S(=O)(=O)c1ccc(OC)cc1 [Compound C0091M] | 207.9
O=C1CN(C2CCc3ccccc3C2)C2(CCN(S(=O)(=O)c3ccccc3)CC2)N1 (stereo not drawn) [C0136M(P5)] | 176.8
O=S(=O)(c1cccc2cccnc12)N1CCC2(CC1)OCCN2S(=O)(=O)c1cccc2cccnc12 [Compound C0143M] | 81.0
CCN1CCC2(CC1)OCCN2S(=O)(=O)c1ccc(C(C)=O)cc1 [Compound C0094M] | 172.5
COc1ccc(S(=O)(=O)N2CCOC23CCNCC3)cc1 | 233.2
CC(=O)c1ccc(S(=O)(=O)N2CCC3(CC2)NCCS3)cc1 | 166.5
CC(=O)c1ccc(S(=O)(=O)N2CC(CN(C)C)OC23CCN(C)CC3)cc1 (stereo not drawn) [Compound C0108M] | 205.6
COc1ccc(S(=O)(=O)N2CCOC23CCN(C(=O)OC(C)(C)C)CC3)cc1 | 175.4
CC(=O)c1ccc(S(=O)(=O)N2CCC3(CC2)OCCN3S(C)(=O)=O)cc1 | 98.6
CC(=O)c1ccc(S(=O)(=O)N2CCOC23CCN(CC(=O)O)CC3)cc1 [Compound C0100M] | 173.6
O=[N+]([O-])c1ccc(S(=O)(=O)N2CCC3(CC2)NCCO3)cc1 | 145.8

----------
TARGET: mu opiate receptor (MOR) (Rattus norvegicus, UniProt P33535)
Construct: from tissue; host or cells: striatum (membrane preparation)
Assay type: biochemical
Let's look at some compounds and their measured % DAMGO (0.1 μM).

COMPOUND | % DAMGO (0.1 μM)
O=C(O)c1ccc(C(=O)N2CCC3(CC2)OCCN3S(=O)(=O)c2ccc(C(=O)O)cc2)cc1 | 94.5%
COc1ccc(CCC(=O)CC2c3c(cc4c(c3OC)OCO4)CC[N+]2(C)C)cc1OC (stereo not drawn) | 39.6%
COc1cccc(S(=O)(=O)N2CCC3(CC2)OCCN3S(=O)(=O)c2cccc(OC)c2)c1 | 51.4%
O=S(=O)(c1cccc2cccnc12)N1CCC2(CC1)OCCN2S(=O)(=O)c1cccc2cccnc12 [Compound C0143M] | 47.1%
OC(COc1cccc(F)c1)CN1CCc2ccccc2C1 (stereo not drawn) | 53.2%
COc1ccccc1CCC(=O)CC1c2c(cc3c(c2OC)OCO3)CC[N+]1(C)C (stereo not drawn) | 82.6%

----------
TARGET: mu opiate receptor (MOR) (Rattus norvegicus, UniProt P33535)
Construct: from tissue; host or cells: striatum (membrane preparation)
Assay type: biochemical
ASSAY CONTEXT: [35S]GTPγS binding to Gαo in striatal membranes; compound 0.1 μM
MEASUREMENT TYPE: Concentration of FLNA-Binding Compound as Agonist 0.1 μM (%)

COMPOUND | TARGET | U | RECORDED MEASUREMENT
O=C1CN(Cc2ccccc2)C2(CCN(S(=O)(=O)c3cc(Cl)cc(Cl)c3O)CC2)N1 [Compound C0138M] | mu opiate receptor (MOR) (Rattus norvegicus, UniProt P33535) | % | 126.9
CC1CN(CC(O)COc2ccc(Br)c(Cl)c2)CC(C)O1 (stereo not shown) [Compound A0045] | mu opiate receptor (MOR) (Rattus norvegicus, UniProt P33535) | % | 143.9
COc1ccc(S(=O)(=O)N2CCCC3(C2)OCCN3S(=O)(=O)c2ccc(OC)cc2)cc1 (stereo not shown) [Compound C0145M] | mu opiate receptor (MOR) (Rattus norvegicus, UniProt P33535) | % | 193.0
CC1CCC(C(C)C)C(OCC(O)CN2CCCCCC2)C1 (stereo not shown) [Compound A0013] | mu opiate receptor (MOR) (Rattus norvegicus, UniProt P33535) | % | 102.1
CCN(CC)CC(O)COC1CC(C)CCC1C(C)C (stereo not shown) [Compound A0032] | mu opiate receptor (MOR) (Rattus norvegicus, UniProt P33535) | % | 226.9
CC1CCC(C(C)C)C(OCC(O)CN2CCN(CCN3CCCCC3)CC2)C1 (stereo not shown) [Compound A0031] | mu opiate receptor (MOR) (Rattus norvegicus, UniProt P33535) | % | 178.2
COc1c2c(cc3c1C(CC(=O)CCc1ccc(O)cc1)[N+](C)(C)CC3)OCO2 (stereo not shown) [Compound B0028] | mu opiate receptor (MOR) (Rattus norvegicus, UniProt P33535) | % | 199.1
COc1ccc(C(=O)N2CCC3(CC2)OCCN3C(=O)c2ccc(OC)cc2)cc1 [Compound C0017] | mu opiate receptor (MOR) (Rattus norvegicus, UniProt P33535) | % | 153.8
CC1CCC(C)C(OCC(O)CN2CC(C)OC(C)C2)C1 (stereo not shown) [Compound A0022] | mu opiate receptor (MOR) (Rattus norvegicus, UniProt P33535) | % | 154.1
O=C(c1ccc([N+](=O)[O-])cc1)N1CCC2(CC1)OCCN2S(=O)(=O)c1ccc([N+](=O)[O-])cc1 [Compound C0022] | mu opiate receptor (MOR) (Rattus norvegicus, UniProt P33535) | % | 194.3
CNc1ccc(S(=O)(=O)N2CCC3(CC2)OCCN3S(=O)(=O)c2ccc(NC)cc2)cc1 [Compound C0024] | mu opiate receptor (MOR) (Rattus norvegicus, UniProt P33535) | % | 178.4
COc1ccc(C(=O)CC2c3c(cc4c(c3OC)OCO4)CC[N+]2(C)C)c(O)c1 (stereo not shown) [Compound B0033] | mu opiate receptor (MOR) (Rattus norvegicus, UniProt P33535) | % | 149.3
CC1CN(CC(O)COc2cc(F)cc(F)c2)CC(C)O1 (stereo not shown) [Compound A0046] | mu opiate receptor (MOR) (Rattus norvegicus, UniProt P33535) | % | 257.5

----------
TARGET: mu opiate receptor (MOR) (Rattus norvegicus, UniProt P33535)
Construct: from tissue; host or cells: striatum (membrane preparation)
Format: biochemical
ASSAY CONTEXT: [35S]GTPγS binding to Gαo in striatal membranes; compound 0.1 μM
MEASUREMENT TYPE: Concentration of FLNA-Binding Compound as Agonist 0.1 μM (%)

COMPOUND | U | RECORDED MEASUREMENT
COc1ccccc1CCC(=O)CC1c2c(cc3c(c2OC)OCO3)CC[N+]1(C)C (stereo not shown) [Compound B0045] | % | 129.3
CC1CCC(C(C)C)C(OCC(O)CN2CCc3ccccc32)C1 (stereo not shown) [Compound A0065] | % | 197.6
O=C(O)c1ccc(C(=O)N2CCC3(CC2)OCCN3S(=O)(=O)c2ccc(C(=O)O)cc2)cc1 [Compound C0021] | % | 159.7
COc1cccc(CC(=O)CC2c3c(cc4c(c3OC)OCO4)CC[N+]2(C)C)c1OC (stereo not shown) [Compound B0038] | % | 147.5
CC(=O)c1ccc(S(=O)(=O)N2CCC3(CC2)NC(=O)C(Cc2cnc[nH]2)N3S(=O)(=O)c2ccc(C(C)=O)cc2)cc1 (stereo not shown) [Compound C0084M] | % | 163.1
OC(COc1ccc(Br)c(F)c1)CN1CCCCC1 (stereo not shown) [Compound A0058] | % | 70.7
CC1CCC(C(C)C)C(OCC(O)CN2CCN(CCN3CCOCC3)CC2)C1 (stereo not shown) [Compound A0011] | % | 236.3
COc1ccc(CCC(=O)CC2c3c(cc4c(c3OC)OCO4)CCN2C)cc1 (stereo not shown) [Compound B0047] | % | 187.8
COc1ccc(NC(=O)N2CCC3(CC2)OCCN3C(=O)Nc2ccc(OC)cc2)cc1 [Compound C0151M] | % | 346.8
COc1ccc(CCCCC2c3c(cc4c(c3OC)OCO4)CC[N+]2(C)C)cc1 (stereo not shown) [Compound B0056] | % | 174.7
COCOc1ccc(C(=O)CC2c3c(cc4c(c3OC)OCO4)CC[N+]2(C)C)cc1C (stereo not shown) [Compound B0041] | % | 61.6
Cc1ccccc1S(=O)(=O)N1CCC2(CC1)OCCN2S(=O)(=O)c1ccccc1C [Compound C0015] | % | 138.7
CC(=O)c1ccc(C(=O)N2CCC3(CC2)OCCN3S(=O)(=O)c2ccc(C(C)=O)cc2)cc1 [Compound C0052] | % | 108.4
CC1CN(CC(O)COc2cccc(F)c2)CC(C)O1 (stereo not shown) [Compound A0049] | % | 232.3
O=S(=O)(c1ccc(F)c(F)c1)N1CCC2(CC1)OCCN2S(=O)(=O)c1ccc(F)c(F)c1 [Compound C0072] | % | 172.7
CC1CN(CC(O)COc2cccc(C(F)(F)F)c2)CC(C)O1 (stereo not shown) [Compound A0051] | % | 290.4
CC(=O)c1ccc(S(=O)(=O)N2CCC3(CC2)NC(=O)CN3S(=O)(=O)c2ccc(C(C)=O)cc2)cc1 [Compound C0064] | % | 213.8
CC1CCC(C(C)C)C(OCC(O)Cn2cccc2)C1 (stereo not shown) [Compound A0038] | % | 176.7
CS(=O)(=O)c1ccc(S(=O)(=O)N2CCC3(CC2)OCCN3S(=O)(=O)c2ccc(S(C)(=O)=O)cc2)cc1 [Compound C0009] | % | 146.3
Cc1cccc(OCC(O)CN2CC(C)OC(C)C2)c1 (stereo not shown) [Compound A0030] | % | 133.4
COc1ccccc1C(=O)CC1c2c(cc3c(c2OC)OCO3)CC[N+]1(C)C (stereo not shown) [Compound B0025] | % | 159.6
CC1CCC(C(C)C)C(OCC(O)CN2CCCCCCC2)C1 (stereo not shown) [Compound A0014] | % | 147.0
CC1CN(CC(O)COc2cccc(N(C)C)c2)CC(C)O1 (stereo not shown) [Compound A0042] | % | 147.5
O=S(=O)(c1ccc(Br)cc1Br)N1CCC2(CC1)OCCN2S(=O)(=O)c1ccc(Br)cc1Br [Compound C0070] | % | 165.6
COc1ccc(CC(=O)CC2c3c(cc4c(c3OC)OCO4)CC[N+]2(C)C)c(OC)c1 (stereo not shown) [Compound B0029] | % | 171.9
COc1c2c(cc3c1C(CC(=O)Cc1ccc(Br)cc1)[N+](C)(C)CC3)OCO2 (stereo not shown) [Compound B0011] | % | 158.6
Nc1ccc(C(=O)N2CCC3(CC2)OCCN3S(=O)(=O)c2ccc(N)cc2)cc1 [Compound C0023] | % | 153.2
CC1CCC(C(C)C)C(OCC(O)CN2CCN(CCCN3CCOCC3)CC2)C1 (stereo not shown) [Compound A0026] | % | 140.7
CC1CCC(C(C)C)C(OCC(O)CN2CCOCC2)C1 (stereo not shown) [Compound A0004] | % | 97.4
O=S(=O)(c1ccc(Cl)cc1)N1CCC2(CC1)OCCN2S(=O)(=O)c1ccc(Cl)cc1 [Compound C0067] | % | 142.7
O=S(=O)(c1ccc(OC(F)(F)F)cc1)N1CCC2(CC1)OCCN2S(=O)(=O)c1ccc(OC(F)(F)F)cc1 [Compound C0006] | % | 121.5
